Can you tell me koff for the items I'm about to list?
Biological target: T1, cynomolgus soluble ULBP5 (cULBP5) (cynomolgus)
T1 construct: also called Cyno-cULBP5
T1 chain: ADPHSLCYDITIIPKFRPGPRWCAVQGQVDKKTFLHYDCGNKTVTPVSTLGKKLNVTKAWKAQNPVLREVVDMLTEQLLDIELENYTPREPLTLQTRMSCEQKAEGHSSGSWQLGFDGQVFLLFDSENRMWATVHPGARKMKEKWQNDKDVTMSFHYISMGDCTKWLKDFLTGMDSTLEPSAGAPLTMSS
Test: SPR (BIACORE 8K, 37 C); antibody captured on Protein A, soluble ULBP injected;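 also: ligand injected as threefold dilution series in HBS-P (highest 10 or 50 nM), reference-cell and buffer-subtracted sensorgrams fitted with a 1:1 Langmuir model for on and off rates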
Output spec: scalar in s⁻¹, unitless text.

(Q) // returns reported koff for input humanized 7B3 (h7B3), Fc version not stated (antibody, V domains shown, Recombinant humanized antibody, hIgG1 backbone with kappa light chain; also called hu7B3; PUR3922) VH: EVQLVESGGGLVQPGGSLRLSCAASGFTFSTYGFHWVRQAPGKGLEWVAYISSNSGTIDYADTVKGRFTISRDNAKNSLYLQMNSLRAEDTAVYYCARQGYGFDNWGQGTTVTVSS VL: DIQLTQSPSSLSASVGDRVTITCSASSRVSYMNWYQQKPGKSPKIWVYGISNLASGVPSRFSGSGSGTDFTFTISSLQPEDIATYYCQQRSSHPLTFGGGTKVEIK
(A) 0.0034

(Q) Then humanized 1D4 (h1D4), Fc version not stated (antibody, V domains shown, Recombinant humanized antibody, hIgG1 backbone with kappa light chain; also called hiD4; hu1D4) VH: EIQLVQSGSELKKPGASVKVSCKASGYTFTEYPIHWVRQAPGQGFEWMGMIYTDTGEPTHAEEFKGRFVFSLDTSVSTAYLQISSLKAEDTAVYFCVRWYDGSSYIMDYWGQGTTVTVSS VL: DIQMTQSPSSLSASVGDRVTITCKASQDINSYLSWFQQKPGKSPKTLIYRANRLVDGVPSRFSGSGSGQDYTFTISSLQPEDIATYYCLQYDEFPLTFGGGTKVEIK ?
(A) 0.00105

(Q) Then humanized 6E1 (h6E1), Fc version not stated (antibody, V domains shown, Recombinant humanized antibody, hIgG1 backbone with kappa light chain; also called hu6E1; PUR3993) VH: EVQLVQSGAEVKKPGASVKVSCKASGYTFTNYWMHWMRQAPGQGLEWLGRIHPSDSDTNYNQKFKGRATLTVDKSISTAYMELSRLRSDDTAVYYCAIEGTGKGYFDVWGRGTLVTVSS VL: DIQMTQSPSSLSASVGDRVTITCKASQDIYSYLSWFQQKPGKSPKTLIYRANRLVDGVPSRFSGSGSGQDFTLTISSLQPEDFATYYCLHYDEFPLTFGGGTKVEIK ?
(A) 0.00922

(Q) Then humanized 8E11 (h8E11), Fc version not stated (antibody, V domains shown, Recombinant humanized antibody, hIgG1 backbone with kappa light chain; also called PUR3926) VH: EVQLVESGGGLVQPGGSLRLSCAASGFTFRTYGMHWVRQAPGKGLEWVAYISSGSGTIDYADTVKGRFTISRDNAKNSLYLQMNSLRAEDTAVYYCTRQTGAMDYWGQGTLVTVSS VL: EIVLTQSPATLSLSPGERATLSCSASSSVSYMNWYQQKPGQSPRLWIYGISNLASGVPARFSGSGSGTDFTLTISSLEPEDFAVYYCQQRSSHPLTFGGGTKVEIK ?
(A) 0.00333

Source: patent US20250084172A1
